test system: SF-295 CNS; assay: NCI-60 one-dose screen, 48 h; conditions: 10 µM unless noted
About 83,000 compounds went through this panel and 20% of them were active in at least one assay; those are over-represented in the sample as a whole. Activity calls are given as the source filed them. Rule for the calls: active = growth percent below 10; inactive = the rest.
Can you answer with just one of these options? active, inactive

C1CCC2(CC1)OOCNCOO2 : inactive
C/C(Cc1ccc(Cl)cc1)=C(\c1ccc(OCCN2CCOCC2)cc1)c1ccc(OC(=O)Cc2ccccc2)cc1 : inactive
CC(C)(N)Cc1ccccc1 : inactive
CN(C)C(=O)Oc1ccccc1-c1ccccc1 : inactive
O=C1C(N2CC2)=C(N2CC2)C(=O)C(N2CC2)=C1N1CC1 : active

Prompt line: So what was the verdict on O=C([O][Hg][CH2]C1COCC([CH2][Hg][O]C(=O)c2ccccc2)O1)c1ccccc1 (configuration not stated) in this test?
Response line: inactive

Prompt line: Now give it for CCOC(=O)c1c(C)n(Cc2ccccc2)c2cc(CN(C)C)c(O)cc12 too.
Response line: inactive

Prompt line: Now give it for Cn1cc(-c2csc(-c3cn(CCN4CCOCC4)c4ccc(F)cc34)n2)c2cccnc21 too.
Response line: inactive

Prompt line: Now give it for O=C(CCCC1CCCCC1)OCC(Cl)(Cl)Cl too.
Response line: inactive

Prompt line: Now give it for CCC(CC)CC1(C)CC2(C)CCOC2OO1 (configuration not stated) too.
Response line: inactive

Prompt line: Now give it for CCCCCCCC[n+]1ccc2ccccc2c1 too.
Response line: inactive

Prompt line: Now give it for O=C1CN=C(c2ccc(Cl)cc2)c2sccc2N1 too.
Response line: inactive

###

tested on: LOX IMVI melanoma; test: NCI-60 one-dose screen, 48 h; conditions: 10 µM unless noted
The panel holds about 83,000 compounds, 20% with a hit somewhere; the sample as a whole holds those more often. The source made the active and inactive calls. Rule for the calls: active = growth percent below 10; inactive = the rest.
Can you answer with just one of these options? active, inactive

Solved cases below.
O=C1NC(=O)C(=Cc2cccn2CCCCCn2c3ccccc3c(=O)c3ccccc32)C(=O)N1 : inactive
CC[C@@H]1[C@@H](C)O[C@@](O)([C@@H](C)[C@H](O)[C@H](C)[C@H]2OC(=O)/C=C/C=C/[C@H](C)[C@@H]([C@@H](C)[C@@H](O)[C@H](C)[C@@]3(O)C[C@@H](O[C@H]4C[C@@H](O)[C@H](O)C(C)O4)[C@H](CC)[C@@H](C)O3)OC(=O)/C=C/C=C/[C@@H]2C)C[C@H]1O[C@@H]1C[C@@H](O)[C@H](O)C(C)O1 (some centres not stated) : active
CC(=O)OC[C@]1(C)C=C2C(=O)[C@](C)(O)C3(CC3)C(C)=C2[C@H]1O : active
O=C(CN1CCN(C(=O)c2ccco2)CC1)Nc1ccc(Cl)cc1C(=O)c1ccccc1Cl : inactive
C=CC12CCN(CC1)C(C(O)c1ccnc3ccc(OC)cc13)C2 (configuration not stated) : inactive
CC1=C(CNO)C2=C(C)C3(CC3)[C@@](C)(O)C(=O)C2=C1 : inactive
COC(=O)[C@@H](C)C[C@H](Cc1ccccc1)NC(=O)c1csc([C@@H](C[C@H](C(C)C)N(C)C(=O)[C@@H](NC(=O)[C@H]2CCCN2C)C2CC2)OC(C)=O)n1 : inactive
CN1CCCCC1C(C)(O)c1ccccc1 (configuration not stated) : inactive
OCCNC(Cc1ccccc1)c1ccc2c(c1)OCO2 (configuration not stated) : inactive
C[C@]12CC[C@@H]3c4ccc(Oc5nc(N6CC6)nc(N6CC6)n5)cc4CC[C@H]3[C@@H]1CCC2=O : active

Prompt line: So what was the verdict on CC[C@H](C)[C@H](NC(=O)c1nccn1C)C(=O)N(C)[C@H](C[C@@H](OC(C)=O)c1nc(C(=O)N[C@@H](Cc2ccccc2)C[C@H](C)C(=O)OC)cs1)C(C)C in this test?
Response line: inactive

Prompt line: Now give it for COC1CC2c3ccccc3C1C(C)=[N+]2C (configuration not stated) too.
Response line: inactive

Prompt line: Now give it for Cc1cc(NC(=O)NCc2ccc(N3C(N)=NC(N)=NC3(C)C)cc2)ccc1S(=O)(=O)F too.
Response line: inactive

Prompt line: Now give it for CC[C@H](C)[C@H](NC(=O)N[C@@H](C)c1ccccc1)C(=O)N(C)[C@H](C[C@@H](OC(C)=O)c1nc(C(=O)N[C@@H](Cc2ccccc2)C[C@H](C)C(=O)OC)cs1)C(C)C too.
Response line: inactive

Prompt line: Now give it for CC(C)(C)C(=O)OCOP(=O)(NCc1ccccc1)C1CCCN(O)C1=O (configuration not stated) too.
Response line: inactive

Prompt line: Now give it for NC(=O)c1c(Br)n(C2OC(CO)C(O)C2O)c2ncnc(N)c12 (configuration not stated) too.
Response line: active

Prompt line: Now give it for C=C(C)[C@@]12OC3(/C=C/C=C/CCCCC)O[C@@H]1[C@@H]1[C@@H]4O[C@]4(CO)[C@@H](O)[C@]4(O)C(=O)C(C)=C[C@H]4[C@@]1(O3)[C@H](C)[C@H]2OC(=O)c1ccccc1 too.
Response line: inactive

Prompt line: Now give it for O=C1OCC2=C1C(c1ccccc1)c1cc3c(cc1N2)OCO3 (configuration not stated) too.
Response line: inactive

Prompt line: Now give it for O=C(CC1(O)C(=O)Nc2ccc(Cl)cc21)c1ccc(C(=O)NCC2CCC3(CC2)OOC2(CCCCC2)OO3)cc1 (configuration not stated) too.
Response line: inactive

Prompt line: Now give it for COC(=O)[C@H](C[C@H](Cc1ccccc1)NC(=O)c1csc([C@@H](C[C@H](C(C)C)N(C)C(=O)[C@@H](NC(=O)[C@H]2CCCCN2C)C(C)C)OC(C)=O)n1)NC(=O)OCc1ccccc1 too.
Response line: inactive

Prompt line: Now give it for O=[N+]([O-])c1cc(I)cc([N+](=O)[O-])c1 too.
Response line: inactive

###

test system: COLO 205 colon; test: NCI-60 one-dose screen, 48 h (100 = growth as untreated, 0 = no growth, -100 = all killed); details: 10 µM unless noted
The panel holds about 83,000 compounds, 20% with a hit somewhere; the sample as a whole holds those more often.
Decision: growth compared against -40%; not below it gives YES, below it gives NO.

Solved cases below.
C=CC12CCN(CC1)C(C(O)c1ccnc3ccc(OC)cc13)C2 (stereo not drawn) : NO
CC1CCCC(C[N+](C)(C)C)C1=O (stereo not drawn) : YES

Prompt line: Decide: is the reported value of growth for CCC1CC(O)c2c(O)c3c(c(O)c2C1O)C(=O)c1cccc(O)c1C3=O (stereo not drawn) (tested in a mixture with another compound) equal to or greater than -40%?
Response line: NO

Prompt line: Now give it for CC1(C)C(C(=O)c2cn(CCCCF)c3ccccc23)C1(C)C too.
Response line: YES

Prompt line: Now give it for Cc1cc(N(CCCl)CCCl)ccc1C=Nc1ccccc1-c1ccccc1 too.
Response line: YES

Prompt line: Now give it for CNC12C3C4C1C1C2C3C41C(=O)N[C@H](C(=O)N(C)[C@H](C[C@@H](OC(C)=O)c1nc(C(=O)N[C@@H](Cc2ccccc2)C[C@H](C)C(=O)OC)cs1)C(C)C)C1CC1 (stereo partly drawn) too.
Response line: NO

Prompt line: Now give it for CN(C)CCCOc1ccc2c(c1)c(C(=O)C(=O)NCCO)cn2Cc1ccccc1 too.
Response line: YES

###

growth overview
system: A498 renal; assay: NCI-60 one-dose screen, 48 h (100 = growth as untreated, 0 = no growth, -100 = all killed); conditions: 10 µM
This is part of a sample that, as a whole, favours compounds with a hit. Of some 83,000 tested, about 20% had one in any assay.
Reply with just the number (in %).

Recorded results for 5 compounds are shown here.
CCCCN(CCCC)P(=O)(Oc1ccccc1)Oc1ccccc1 : 93.8
COc1cccc(/C=C/[N+](=O)[O-])c1 : 43.8
CN1C(=O)N[C@H]2[C@@H]3NC(=O)c4ccc(Br)n4[C@@H]3C[C@]21O : -47.8
C[C@]12C[C@@H](CO)[C@H](O)C[C@@H]1CC[C@@H]1[C@@H]2CC[C@]2(C)[C@@H](O)CC[C@@H]12 : 95.1
C1CCC2(CC1)OOCNCOO2 : 97.4

Lab note: next compound to report on.
Prompt line: Quick one: growth of NC(N)=N/N=C\c1c[nH]c2ccc(Br)cc12 ?
Response line: 89.7

###

test system: DU-145 prostate; assay: NCI-60 one-dose screen, 48 h; details: 10 µM unless noted
About 83,000 compounds went through this panel and 20% of them were active in at least one assay; those are over-represented in the sample as a whole. Activity calls are given as the source filed them. How the source made its calls: active means growth percent below 10; inactive means the rest.
Can you answer with just one of these options? yes for active, no for inactive

Cc1ccc(C(Cc2ccccc2)NCCO)cc1 (stereo not given) : no
O=C(O)C1C(C(=O)O)C2(Cl)C(Cl)=C(Cl)C1(Cl)C2(Cl)Cl.[Hg] (stereo not given) : no
O=C1C(Cl)=C(N2CCOCC2)C(=O)c2ccccc21 : no
CC1=C(CCCNS(C)(=O)=O)C2=C(C)C3(CC3)[C@@](C)(O)C(=O)C2=C1 : yes
O=P1(NCCCl)OCCCN1CCCl (stereo not given) : no

Prompt line: So what was the verdict on CC[C@H](C)[C@H](NC(=O)[C@H]1CCCCN1C)C(=O)N(C)[C@H](C[C@@H](OC(C)=O)c1nc(C(=O)N[C@@H](Cc2ccccc2)C[C@H](C)C(=O)OC)cs1)C(C)C in this test?
Response line: yes

Prompt line: Now give it for COc1cccc2c1c(C(=O)C(=O)Nc1cc(C)no1)cn2Cc1ccc(F)cc1 too.
Response line: no

Prompt line: Now give it for COc1cc(C=Nc2cccc(Br)c2)ccc1N(CCCl)CCCl too.
Response line: no

Prompt line: Now give it for CCOP1(=O)CC(C)=C(Cl)C(P(=O)(OCC)OCC)C1 (stereo not given) too.
Response line: no

Prompt line: Now give it for ClCCN(CCCl)Cc1ccc(Nc2ccnc3cc(Cl)ccc23)cc1 too.
Response line: no
